test system: KB-V1 (MDR1++); experiment: Cell survival assay (SRB), KB-V1 (MDR1++)
measurement.kind: Ratio KBV1/KB

1. CNC(C(=O)N[C@H](C(=O)N(C)[C@H](/C=C(\C)C(=O)O)C(C)C)C(C)(C)C)C1(c2ccccc2)CC1 (stereo in doubt) [Example 143] : 61.6
2. CC[C@H](C)[C@H](NC(=O)[C@@H](NC)C(C)(C)c1ccccc1)C(=O)N(C)[C@H](/C=C(\C)C(=O)O)C(C)C.O=C(O)C(F)(F)F : 42.3
3. CN[C@H](C(=O)N[C@H](C(=O)N(C)[C@H](/C=C(\C)C(=O)O)C(C)C)C(C)(C)C)C(C)(C)c1cccs1 : 80.9
4. CC/C(=C\[C@H](C(C)C)N(C)C(=O)[C@@H](NC(=O)[C@@H](NC)C(C)(C)c1ccccc1)C(C)(C)C)C(=O)O : 94.9
5. CCOC(=O)/C(C)=C/[C@H](C(C)C)N(C)C(=O)/C(C)=C/[C@H](C(C)C)N(C)C(=O)[C@@H](NC(=O)[C@@H](NC)C(C)(C)c1ccccc1)C(C)(C)C : 32.3
6. CNC(C(=O)NC(C(=O)N(C)C(C=C(C)C(=O)O)CC(C)C)C(C)(C)C)C(C)(C)c1ccccc1.O=C(O)C(F)(F)F (stereo not drawn) : 79.3
7. CN[C@H](C(=O)N[C@H](C(=O)N(C)[C@H](/C=C(\C)C(=O)O)C(C)C)C(C)C)C(C)(C)c1ccccc1.O=C(O)C(F)(F)F : 54.9
8. CN[C@H](C(=O)N[C@H](C(=O)N(C)[C@H](/C=C(\C)C(=O)O)C(C)C)C(C)(C)C)C(C)(C)c1cccc(O)c1 : 329.7
9. CCOC(=O)/C(C)=C/C(C(C)C)N(C)C(=O)[C@@H](NC(=O)[C@@H](NC)C(C)(C)c1ccccc1)[C@H](C)O (stereo in doubt) : 26.0
10. CN[C@@H](C(=O)N[C@H](C(=O)N(C)[C@H](/C=C(\C)C(=O)O)C(C)C)C(C)(C)C)C(C)(C)c1cccs1 : 74.4
11. CN[C@H](C(=O)N[C@@H](CCC(=O)O)C(=O)N(C)[C@H](/C=C(\C)C(=O)O)C(C)C)C(C)(C)c1ccccc1 : 6.0
12. CCOC(=O)/C(C)=C/[C@H](C(C)C)N(C)C(=O)[C@@H](NC(=O)[C@H](NC)C(C)(C)c1ccc(C)cc1)C(C)(C)C [Example 10b] : 6.7

###

Test system: MDA-MB-435
Assay: Cell survival assay (SRB), MDA-MB-435
Assay type: cell-based
Details: Homo sapiens, 72 h; MDA-MB-435, breast; 3 days, SRB staining
Method: 2.2. Cell Survival Assay: Standard Pharmacological Test Procedure. […] Compounds are incubated with cells for 3 days.
measurement.kind: IC50

1) CN[C@H](C(=O)N[C@H](C(=O)N(C)[C@H](/C=C(\C)C(=O)O)C(C)C)C(C)(C)C)C(C)(C)c1ccccc1 : 0.5 nM

###

tested on: KB-V1 (MDR1++); assay: Cell survival assay (SRB), KB-V1 (MDR1++)
measurement.kind: Ratio KBV1/KB

1. CCOC(=O)/C(C)=C/[C@H](C(C)C)N(C)C(=O)[C@@H](NC(=O)[C@H](NC)C(C)(C)c1cccc(C)c1)C(C)(C)C : 11.4
2. CN[C@H](C(=O)N[C@H](C(=O)N(C)[C@H](/C=C(\C)C(=O)O)C(C)C)C(C)(C)c1ccc(C(=O)c2ccccc2)cc1)C(C)(C)c1ccccc1 : 133.9
3. CN[C@H](C(=O)N[C@H](C(=O)N(C)[C@H](/C=C(\C)C(=O)Nc1ccc(N=[N+]=[N-])cc1)C(C)C)C(C)(C)C)C(C)(C)c1ccccc1 : 12.6
4. CN[C@H](C(=O)N[C@H](C(=O)N(C)[C@H](/C=C(\C)C(=O)O)C(C)C)C(C)(C)C)C(C)(C)c1cccc(Cl)c1 : 80.0
5. CN[C@H](C(=O)N[C@@H](CCc1ccccc1)C(=O)N(C)[C@H](/C=C(\C)C(=O)O)C(C)C)C(C)(C)c1ccccc1 : 16.6
6. CCOC(=O)/C(C)=C/[C@H](C(C)C)N(C)C(=O)[C@@H](NC(=O)[C@@H](NC)C(C)(C)c1cccc(Cl)c1)C(C)(C)C : 5.3

###

test system: HL60; experiment: Cell survival assay (MTS), HL60; format: cell-based; details: Homo sapiens, HL-60, read-out: HL60 IC50, nM (N)
measurement.kind: IC50

1. CN[C@H](C(=O)N[C@H](C(=O)N(C)[C@H](/C=C(\C)C(=O)O)C(C)C)C(C)(C)C)C(C)(C)c1ccccc1 : 0.212 nM

###

tested on: KB-3-1; assay: Cell survival assay (SRB), KB-3-1; type: cell-based, human; details: Homo sapiens, KB 3-1, KB-3-1 cells (paclitaxel-sensitive parent); read-out: In vitro IC50 (nM) KB-3-1
We begin with a simple list: items and their reported IC50.
measurement.kind: IC50 (nM)

1. CN[C@H](C(=O)N[C@H](C(=O)N(C)[C@H](/C=C(\C)C(=O)O)C(C)C)C(C)(C)c1ccc(OC)cc1)C(C)(C)c1ccccc1 : 27.2
2. CN[C@H](C(=O)N[C@H](C(=O)N(C)[C@H](/C=C(\C)C(=O)O)C(C)C)C(C)(C)C)C(C)(C)C : 114
3. CNC(C(=O)N[C@H](C(=O)N(C)[C@@H](/C=C(\C)C(=O)O)C(C)C)C(C)(C)C)C1(c2ccccc2)CCCCC1 (stereo partly drawn) : 204
4. CCOC(=O)/C(C)=C/[C@H](C(C)C)N(C)C(=O)[C@@H](NC(=O)[C@H](NC)C(C)(C)c1ccc(C)cc1)C(C)(C)C [Example 10b] : 447
5. CCN[C@H](C(=O)N[C@H](C(=O)N(C)[C@H](/C=C(\C)C(=O)OCC)C(C)C)C(C)(C)C)C(C)(C)c1ccccc1 : 436
6. CN[C@H](C(=O)N[C@H](C(=O)N(C)[C@H](/C=C(\C)C(=O)O)C(C)C)C(C)(C)C)C(C)(C)c1cccs1 : 2

###

test system: tumor cell lines; assay: cells; format: cell-based; conditions: read-out: IC50 in cell lines expressing moderate to very high MDR1, MX-1W, NCI-H1299, DLD-1, HCT-15
pIC50: −log10 of the molar value.
measurement.kind: pIC50

1) CN[C@H](C(=O)N[C@H](C(=O)N(C)[C@H](/C=C(\C)C(=O)O)C(C)C)C(C)(C)C)C(C)(C)c1ccccc1 [Example 129] : 8.17 to 8.96

###

system: KB-8-5 (MDR1+); experiment: Cell survival assay (SRB), KB-8-5 (MDR1+); settings: Homo sapiens, MDR1, read-out: KB-8-5 (MDR1+) IC50, nM (N)
measurement.kind: IC50

1) CN[C@H](C(=O)N[C@H](C(=O)N(C)[C@H](/C=C(\C)C(=O)O)C(C)C)C(C)(C)C)C(C)(C)c1cn(C)c2ccccc12 [Hemiasterlin, hemiasterlin, reference compound] : 1 nM
2) O=C1c2c(O)ccc(O)c2C(=O)c2c(NCCNCCO)ccc(NCCNCCO)c21 [mitoxantrone] : 19.1 nM
3) COc1cccc2c1C(=O)c1c(O)c3c(c(O)c1C2=O)C[C@@](O)(C(=O)CO)C[C@@H]3O[C@H]1C[C@H](N)[C@H](O)[C@H](C)O1 [adriamycin] : 658 nM
4) CN[C@H](C(=O)N[C@H](C(=O)N(C)[C@H](/C=C(\C)C(=O)O)C(C)C)C(C)(C)C)C(C)(C)c1ccccc1 [Example 129] : 2.3 nM

###

system: KB-V1 (MDR1++); experiment: Cell survival assay (SRB), KB-V1 (MDR1++)
We begin with a simple list: items and their reported Ratio KBV1/KB.
measurement.kind: Ratio KBV1/KB

1) CN[C@H](C(=O)N[C@H](C(=O)N[C@H](/C=C(\C)C(=O)O)C(C)C)C(C)(C)C)C(C)(C)c1ccccc1.O=C(O)C(F)(F)F : 69.6
2) CN[C@H](C(=O)N[C@H](C(=O)N(C)[C@H](/C=C(\C)C(=O)O)C(C)C)C(C)(C)C)C(C)(C)C : 26.4
3) CN[C@H](C(=O)N[C@H](C(=O)N(C)[C@H](/C=C(\C)C(=O)O)C(C)C)C(C)(C)S(C)(=O)=O)C(C)(C)c1ccccc1 : 16.9
4) CN[C@H](C(=O)N[C@@H](CC(C)C)C(=O)N(C)[C@H](/C=C(\C)C(=O)O)C(C)C)C(C)(C)c1ccccc1.O=C(O)C(F)(F)F : 76.1
5) CCOC(=O)/C(C)=C/[C@H](C(C)C)N(C)C(=O)[C@@H](NC(=O)[C@@H](NC)C(C)(C)C1CCCCC1)C(C)(C)C [Reference Example 100] : 8.5
6) CN[C@H](C(=O)N[C@H](C(=O)N(C)[C@H](/C=C(\C)C(=O)O)C(C)C)C(C)(C)SC)C(C)(C)c1ccc(OC)cc1 : 188.7
7) CCN(C(=O)[C@@H](NC(=O)[C@@H](NC)C(C)(C)c1ccccc1)C(C)(C)C)[C@H](/C=C(\C)C(=O)O)C(C)C.O=C(O)C(F)(F)F : 27.5
8) CCCCCC(C)(C)[C@@H](NC)C(=O)N[C@H](C(=O)N(C)[C@H](/C=C(\C)C(=O)O)C(C)C)C(C)(C)C : 13.4
9) CNC(C(=O)NC(C)C(=O)N(C)C(C=C(C)C(=O)O)C(C)C)C(C)(C)c1ccccc1.O=C(O)C(F)(F)F (stereo not shown) : 15.3
10) C/C(=C\[C@H](C(C)C)N(C)C(=O)[C@@H](NC(=O)[C@@H](N(C)C)C(C)(C)c1ccccc1)C(C)(C)C)C(=O)O : 74.6
11) CN[C@H](C(=O)N[C@H](C(=O)N(C)[C@H](/C=C(\C)C(=O)O)C(C)C)C(C)(C)C)C(C)(C)c1cccc(C(C)=O)c1 : 206
12) CN[C@H](C(=O)N[C@H](C(=O)N(C)[C@H](/C=C(\C)C(N)=O)C(C)C)C(C)(C)C)C(C)(C)c1ccccc1 : 46.4
13) C=CC(C)(C)[C@H](NC)C(=O)N[C@H](C(=O)N(C)[C@H](/C=C(\C)C(=O)O)C(C)C)C(C)(C)C : 22.0
14) CN[C@H](C(=O)N[C@H](C(=O)N(C)[C@H](/C=C(\C)C(=O)NCCc1ccccc1)C(C)C)C(C)(C)C)C(C)(C)c1ccccc1 : 10.8
15) CCOC(=O)/C(C)=C/[C@H](C(C)C)N(C)C(=O)[C@@H](NC(=O)[C@@H](NC)C(C)(C)c1ccc(OC)cc1OC)C(C)(C)C : 20.8
16) CCOC(=O)/C(C)=C/[C@H](C(C)C)N(C)C(=O)[C@@H](NC(=O)[C@@H](NC)C(C)(C)c1ccccc1OC)C(C)(C)C : 16.6
17) CN[C@@H](C(=O)N[C@H](C(=O)N(C)[C@H](/C=C(\C)C(=O)O)C(C)C)C(C)(C)C)C(C)(C)c1ccsc1 : 182.9
18) CN[C@H](C(=O)N[C@H](C(=O)N(C)[C@H](/C=C(\C)C(=O)O)C(C)C)C(C)(C)C)C(C)(C)c1ccccc1 [Example 129] : 80.6
19) CN[C@H](C(=O)N[C@@H](C(=O)N(C)[C@H](/C=C(\C)C(=O)O)C(C)C)C(C)(C)F)C(C)(C)c1ccccc1 : 34.1
20) CN[C@H](C(=O)N[C@H](C(=O)N(C)[C@H](/C=C(\C)C(=O)O)C(C)C)C(C)(C)C)C(C)(C)c1ccsc1 : 345.0
21) CCOC(=O)/C(C)=C/[C@H](C(C)C)N(C)C(=O)[C@@H](NC(=O)[C@H](NC)C(C)(C)c1ccc(C)c(C)c1)C(C)(C)C [Example 13b] : 10.2
22) CNC(C(=O)N[C@H](C(=O)N(C)[C@H](/C=C(\C)C(=O)O)C(C)C)C(C)(C)C)C1(c2ccccc2)CC1 (stereo in doubt) [Example 142] : 13.2
23) CN[C@H](C(=O)N[C@H](C(=O)N(C)[C@H](/C=C(\C)C(=O)O)C(C)C)C(C)(C)C)C(C)(C)C1CCCCC1 : 40.9
24) CN[C@H](C(=O)N[C@H](C(=O)N(C)[C@H](/C=C(\C)C(=O)O)C(C)C)C(C)(C)C)C(C)(C)c1cccc(OC)c1 : 64.0
25) CN[C@H](C(=O)N[C@H](C(=O)N(C)[C@H](/C=C(\C)C(=O)O)C(C)C)C(C)(C)C)C(C)(C)c1cccc(-c2ccccc2)c1 : 78.4

Value source: patent US20040121965A1
